- system-tested: PRMT1 (Homo sapiens)
- Construct: host or cells: RKO cells
- Sequence (Q99873 whole entry): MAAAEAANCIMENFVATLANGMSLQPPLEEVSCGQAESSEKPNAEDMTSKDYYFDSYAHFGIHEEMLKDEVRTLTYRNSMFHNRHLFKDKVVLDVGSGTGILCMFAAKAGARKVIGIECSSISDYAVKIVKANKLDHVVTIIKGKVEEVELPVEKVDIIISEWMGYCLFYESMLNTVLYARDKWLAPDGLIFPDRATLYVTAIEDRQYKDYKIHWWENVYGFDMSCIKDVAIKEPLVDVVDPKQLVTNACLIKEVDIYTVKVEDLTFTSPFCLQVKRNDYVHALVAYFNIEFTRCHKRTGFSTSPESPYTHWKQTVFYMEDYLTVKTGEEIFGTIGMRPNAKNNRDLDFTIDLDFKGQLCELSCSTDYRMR
- procedure-text: RKO methylation assay, In Cell Western (ICW) for mono-methyl arginine and DNA content
- Format: cell-based
- test-conditions: RKO cells, 72 hours, mono-methyl arginine signal normalised to DRAQ5, percent activation
Where a name gives a salt, the structure may show the parent alone.

# compound, PRMT1 RGG ICW EC30
rows = [
    ("CNCCN(C)Cc1c[nH]nc1C1CC(COCC2CC2)CC(COCC2CC2)C1 (centres unmarked)", ">5000 nM"),
    ("CCC1CC(c2n[nH]cc2CN(C)CCNC)CC(C(=O)NCCOC)C1(C)C (centres unmarked) [compound 21, dihydrochloride]", ">5000 nM"),
    ("CNCCN(C)Cc1c(C)noc1[C@H]1CC[C@]2(CC1)CC(C)(C)CO2", ">10000 nM"),
    ("CNCCN(C)Cc1sc(C)nc1[C@H]1CC[C@]2(CC1)CC(C)(C)CO2", "75.86 nM"),
    ("CNCCN(C)Cc1ncsc1[C@H]1CC[C@@]2(CC1)CC(C)(C)CO2", "57.96 nM"),
    ("CNCCN(C)Cc1scnc1[C@H]1CC[C@@]2(CC1)CC(C)(C)CO2", "6.96 nM"),
    ("CNCCN(C)Cc1nn[nH]c1[C@H]1CC[C@@]2(CC1)CC(C)(C)CO2", "33.9 nM"),
    ("CNCCN(C)Cc1c[nH]nc1[C@@H]1CC[C@H](OCCCOC)C2(CCCC2)C1 (racemic)", "216.4 nM"),
]

Numbers sourced from patent US20170291905A1.
